Target: T1, SBDSco E156D (Streptomyces coelicolor, UniProt Q9L0M9 90-250, E156D)
T1 sequence: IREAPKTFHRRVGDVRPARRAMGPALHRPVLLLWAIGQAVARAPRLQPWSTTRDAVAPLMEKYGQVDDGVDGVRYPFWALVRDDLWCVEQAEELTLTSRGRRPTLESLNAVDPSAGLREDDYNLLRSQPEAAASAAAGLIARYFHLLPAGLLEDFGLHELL
Assay: fluorescence polarization; FP: 20 mM Tris-HCl pH 8.0, 50 mM NaCl, 5% glycerol, 1 mM DTT, 5 nM probe, room temperature; EMSA: 20 mM Tris-HCl pH 8.0, 100 mM NaCl, 5% glycerol, room temperature, protein 4x DNA
Details: protein: recombinant; tags: 6xHis; label: 5'-FAM on one strand (FP); blunt
# Kd per record follows
Assay Readout: Kd (nM)

Binder	Assay Readout	Value Reported
PT-GAAC-10 RP (hemi-PT) (dsDNA, RP phosphorothioate between G4 and A5 of strand 1) DNA 1: GGCGAACGTG DNA 2: CACGTTCGCC	Kd	846
PT-GATC-10 RP (hemi-PT) (dsDNA, RP phosphorothioate between G4 and A5 of strand 1) DNA 1: GATGATCCTA DNA 2: TAGGATCATC	Kd	1320
